- Tested on: Escherichia coli K88

compound	unit.label	MIC
CC(C)[C@H](NC(=O)[C@H](CCCN=C(N)N)NC(=O)[C@H](Cc1c[nH]c2ccccc12)NC(=O)[C@H](CCCN=C(N)N)NC(=O)[C@H](Cc1c[nH]c2ccccc12)NC(=O)[C@H](Cc1c[nH]c2ccccc12)NC(=O)[C@H](Cc1c[nH]c2ccccc12)NC(=O)[C@H](CCCN=C(N)N)NC(=O)[C@H](Cc1c[nH]c2ccccc12)NC(=O)[C@H](CCCN=C(N)N)NC(=O)CN)C(N)=O [GRWRWWWRWRV]	µM	1

----------
Listed here are molecules together with their documented MIC.
- Tested on: Pseudomonas aeruginosa ATCC 9027
- assay.explanation: ≥ marks a high value that may be exact or a test limit, other limits are often not marked, values filed in µg/mL are converted to µM
outcome.measure: MIC (µM)

smiles.repr	experimental.target	outcome.measure	value
CC[C@H](C)[C@H](N)C(=O)N[C@@H](CCCN=C(N)N)C(=O)N[C@H](C(=O)N[C@@H](CCCCN)C(=O)N[C@H](C(=O)N[C@@H](CCCN=C(N)N)C(=O)N[C@H](C(=O)N[C@@H](CCCCN)C(=O)N[C@H](C(=O)N[C@@H](CCCN=C(N)N)C(=O)N[C@H](C(=O)N[C@@H](CCCCN)C(N)=O)C(C)C)[C@@H](C)CC)C(C)C)[C@@H](C)CC)C(C)C	Pseudomonas aeruginosa ATCC 9027	MIC	41.4
CC[C@H](C)[C@H](N)C(=O)N[C@@H](CCCCN)C(=O)N[C@H](C(=O)N[C@@H](CCCCN)C(=O)N[C@H](C(=O)N[C@@H](CCCCN)C(=O)N[C@H](C(=O)N[C@@H](CCCCN)C(N)=O)[C@@H](C)CC)[C@@H](C)CC)[C@@H](C)CC	Pseudomonas aeruginosa ATCC 9027	MIC	6.25
